Entries annotated with measured TGI
- Tested on: ACHN renal
- experimentSummary: NCI tumour cell line growth inhibition, 48 h

{"compound": "NCCSc1nc(-c2ccccc2)c(-c2ccccc2)o1", "TGI": "> 100 µM"}
{"compound": "[N-]=[N+]=Nc1cc(=O)n2c3c(cccc13)CCC2", "TGI": "> 100 µM"}
{"compound": "CN1C(=O)CSC1=S", "TGI": "> 100 µM"}
{"compound": "Cc1nc2sc3c(c2c(=O)[nH]1)CCCC3", "TGI": "> 100 µM"}
{"compound": "CCOC(=O)/C=C(/C)Sc1cc(O)c2ccccc2c1O", "TGI": "9.82 µM"}
{"compound": "O=c1cc(CO)oc(C(O)c2ccccc2)c1O (configuration not stated)", "TGI": "> 100 µM"}
{"compound": "[N-]=[N+]=NC1C(O)C(CO)OC1n1ccc(=O)[nH]c1=O (configuration not stated)", "TGI": "> 875 µM"}
{"compound": "CCCCSC1=N/C(=C\\c2ccco2)C(Cl)=N1", "TGI": "> 100 µM"}
{"compound": "COc1ccc(O)c(C(=O)c2ccc(C(=O)N[C@H]3CCCNC[C@@H]3NC(=O)c3ccncc3)cc2)c1F", "TGI": "> 25 µM"}
{"compound": "COc1ccc(OC)c(C(Cc2ccnc3ccccc23)Cc2ccnc3ccccc23)c1", "TGI": "> 10 µM"}
{"compound": "O=C(N[C@@H](c1ccccc1)[C@@H](O)C(=O)OCc1ccc([N+](=O)[O-])cc1)c1ccccc1", "TGI": "> 100 µM"}
{"compound": "CC(C)(C)OC(=O)NC(Cc1ccc(OC(C)(C)C)cc1)C(=O)N[C@H]1CCC[C@H]1C(=O)NC(Cc1ccccc1)C(=O)N1CCCC1C(N)=O (some centres not stated)", "TGI": "> 100 µM"}
{"compound": "COc1ccc(-c2ccc(-c3ccc(C(=N)N)s3)s2)cc1", "TGI": "0.359 µM"}
{"compound": "Cc1nc2ccc(NC(=S)Nc3ccccc3)cc2c(=O)n1-c1ccccc1", "TGI": "> 100 µM"}
{"compound": "CC(=O)N(CCc1ccccc1)C(C#N)c1ccccc1 (configuration not stated)", "TGI": "> 100 µM"}
{"compound": "Cc1cc(C)c(C[C@H]2COC(=O)[C@]2(O)Cc2c(C)cc(C)cc2C)c(C)c1", "TGI": "35.7 µM"}
{"compound": "CN1C(=O)c2ccccc2OC12C=Cc1ccc(O)cc1O2 (configuration not stated)", "TGI": "> 100 µM"}
{"compound": "CSc1ccc2c(c1)C(=O)c1c-2n(CCCBr)c(=O)c2cc([N+](=O)[O-])ccc12", "TGI": "8.4 µM"}
{"compound": "CCCOc1ccc2sc(NC(=O)OC)nc2c1", "TGI": "> 100 µM"}
{"compound": "Fc1ccc(C(=C2CCN(CCc3ccc4[nH]c(=S)[nH]c4c3)CC2)c2ccc(F)cc2)cc1", "TGI": "24.1 µM"}
{"compound": "Cc1cc(C)c2c(c1)C/C(=C\\c1ccccc1C(=O)O)C2=O", "TGI": "> 100 µM"}
{"compound": "O=C1NC(=O)C(c2cccc([N+](=O)[O-])c2)=C1Nc1cc(Cl)c(O)c(Cl)c1", "TGI": "> 25 µM"}
